Assay: Comparative PK Results-2: Day 5 multiple-dose pharmacokinetics
Assay type: in vivo, human
Settings: human, plasma, oral; 800 mg TID, Day 5, healthy subjects, n = 31; read-out: Tmax, median
reported_endpoint: Tmax (h)
Report only the number, with the unit h understood.

Returns the measured Tmax for the input compound. Input: CC(C)(C)NC(=O)NC(C(=O)N1CC2C([C@H]1C(=O)NC(CC1CCC1)C(=O)C(N)=O)C2(C)C)C(C)(C)C (stereo partly shown) [compound of Formula B]
2

###

Assay: Comparative PK Results-2: Day 5 multiple-dose pharmacokinetics
Assay type: in vivo, human
Settings: human, plasma, oral; 800 mg TID, Day 5, healthy subjects, n = 31
reported_endpoint: Vd/F (L)
Report only the number, with the unit L understood.

Returns the measured Vd/F for the input compound. Input: CC(C)(C)NC(=O)NC(C(=O)N1CC2C([C@H]1C(=O)NC(CC1CCC1)C(=O)C(N)=O)C2(C)C)C(C)(C)C (stereo partly shown)
530

###

Test: Aggregated / median particle size and size distribution
Type: physicochemical
Details: additional runs A, B, C (mixing Tee)
Measured Aggregated particle size values are reported for all entries that follow.

Worked cases, Aggregated particle size given:
# molecule, Aggregated particle size
data = [
    ("CC(C)(C)NC(=O)NC(C(=O)N1CC2C([C@H]1C(=O)NC(CC1CCC1)C(=O)C(N)=O)C2(C)C)C(C)(C)C (stereo partly drawn) [Example A2]", "10-20 microns"),
    ("CC(C)(C)NC(=O)NC(C(=O)N1CC2C([C@H]1C(=O)NC(CC1CCC1)C(=O)C(N)=O)C2(C)C)C(C)(C)C (stereo partly drawn) [Example C2]", "0.25-18 microns"),
]

Please examine the following record next.
Returns the measured Aggregated particle size for the input molecule. Input: CC(C)(C)NC(=O)NC(C(=O)N1CC2C([C@H]1C(=O)NC(CC1CCC1)C(=O)C(N)=O)C2(C)C)C(C)(C)C (stereo partly drawn) [Example A3]
20-30 microns

###

Assay: Bulk density / tapped density
Type: physicochemical
Conditions: Example I second run, isolated particulate
reported_endpoint: bulk density average (g/cm³)
Report only the number, with the unit g/cm³ understood.

Returns the measured bulk density average for the input compound. Input: CC(C)(C)NC(=O)NC(C(=O)N1CC2C([C@H]1C(=O)NC(CC1CCC1)C(=O)C(N)=O)C2(C)C)C(C)(C)C (stereo partly shown)
0.191

###

Test: BET surface area (bulk surface area)
Type: physicochemical
Settings: additional runs A, B, C; precipitate before distillation
reported_endpoint: BET Surface area (m^2/g)
Report only the number, with the unit m^2/g understood.

Worked cases, BET Surface area given:
# compound, readout_unit, number
rows = [
    ("CC(C)(C)NC(=O)NC(C(=O)N1CC2C([C@H]1C(=O)NC(CC1CCC1)C(=O)C(N)=O)C2(C)C)C(C)(C)C (stereo partly drawn) [Example A3]", "m^2/g", 17.41),
    ("CC(C)(C)NC(=O)NC(C(=O)N1CC2C([C@H]1C(=O)NC(CC1CCC1)C(=O)C(N)=O)C2(C)C)C(C)(C)C (stereo partly drawn) [Example C1]", "m^2/g", 24.85),
    ("CC(C)(C)NC(=O)NC(C(=O)N1CC2C([C@H]1C(=O)NC(CC1CCC1)C(=O)C(N)=O)C2(C)C)C(C)(C)C (stereo partly drawn) [Example A1]", "m^2/g", 30.19),
    ("CC(C)(C)NC(=O)NC(C(=O)N1CC2C([C@H]1C(=O)NC(CC1CCC1)C(=O)C(N)=O)C2(C)C)C(C)(C)C (stereo partly drawn) [Example B2]", "m^2/g", 25.68),
]

Returns the measured BET Surface area for the input compound. Input: CC(C)(C)NC(=O)NC(C(=O)N1CC2C([C@H]1C(=O)NC(CC1CCC1)C(=O)C(N)=O)C2(C)C)C(C)(C)C (stereo partly drawn) [Example B1]
32.75

Request: CC(C)(C)NC(=O)NC(C(=O)N1CC2C([C@H]1C(=O)NC(CC1CCC1)C(=O)C(N)=O)C2(C)C)C(C)(C)C (stereo partly drawn) [Example B3]
32.00

Request: CC(C)(C)NC(=O)NC(C(=O)N1CC2C([C@H]1C(=O)NC(CC1CCC1)C(=O)C(N)=O)C2(C)C)C(C)(C)C (stereo partly drawn) [Example B4]
24.24

Request: CC(C)(C)NC(=O)NC(C(=O)N1CC2C([C@H]1C(=O)NC(CC1CCC1)C(=O)C(N)=O)C2(C)C)C(C)(C)C (stereo partly drawn) [Example A2]
16.44

Request: CC(C)(C)NC(=O)NC(C(=O)N1CC2C([C@H]1C(=O)NC(CC1CCC1)C(=O)C(N)=O)C2(C)C)C(C)(C)C (stereo partly drawn) [Example C2]
32.41
